meta.source: paper PMC10397247

- Target entity: T1, P6-AA-12HGe-Q
- T1 chain: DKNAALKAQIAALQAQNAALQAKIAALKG
- Assay name: two-hybrid library CCmax;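 also: natural log of median RNA to DNA barcode read ratio; higher means stronger binding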
- Details: mean of both orientations
Observation type: interaction score

Use these answered entries as a reference point.
1. DENAALEAQIAALQAQNAALQAEIAALEG [P5-AA-12HGe-Q] :: 1.76
2. DENAALEARIAALRARNAALRAEIAALEG [P5-AA-12HGe-R] :: 1.15
3. DENAALEATIAALTATNAALTAEIAALEG [P5-AA-12HGe-T] :: 1.22
4. DENAALEAWIAALWAWNAALWAEIAALEG [P5-AA-12HGe-W] :: 0.162
5. DENAALEAMIAALMAMNAALMAEIAALEG [P5-AA-12HGe-M] :: 2.16

[a] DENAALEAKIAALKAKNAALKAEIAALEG [4H1401-AA]
[b] DENAALEASIAALSASNAALSAEIAALEG [P5-AA-12HGe-S]
When a and b are compared, which has the higher number for interaction score? State your choice using its label.
a
